# Tested on: Primary human T-cells
# assayRemarks: Primary Human T-Cell Proliferation Assay Stimulated with IL-2 (CellTiter-Glo)
# Format: cell-based
# runParameters: primary human T-cell proliferation stimulated with IL-2; read-out: IC50, Example 42
The label is yes for IC50 below 400 nM and no for IC50 equal to or exceeding 400 nM.

{"columns": ["compound", "assignedClass"],
 "data": [
  ["NS(=O)(=O)c1cccc(Nc2ncc(F)c(Nc3ccc(OCc4cccnc4)cc3)n2)c1", "yes"]
]}

Ask: Hi there! Is IC50 for CNS(=O)(=O)c1cc(Nc2ncc(F)c(Nc3cccc(OCc4nc(C)no4)c3)n2)ccc1C below 400 nM, do you know?
Result: no

Ask: Again, but for Cc1noc(COc2ccc(Nc3nc(Nc4cccc(S(=O)(=O)NCc5oc(=O)oc5C)c4)ncc3F)cc2)n1
Result: yes

Ask: Again, but for CNS(=O)(=O)c1cc(Nc2ncc(F)c(Nc3ccc(Cn4ccnc4)cc3)n2)ccc1C
Result: yes

Ask: Again, but for Cc1cc(Nc2nc(Nc3ccc(S(N)(=O)=O)cc3)ncc2F)cc(C)c1OC(C)C#N (racemic)
Result: no

Ask: Again, but for Cc1cc(Nc2nc(Nc3ccc(F)c(S(N)(=O)=O)c3)ncc2F)ccc1OCC#N
Result: no

Ask: Again, but for CCC(=O)NCc1ccc(Nc2nc(Nc3cccc(S(N)(=O)=O)c3)ncc2F)cc1
Result: yes

Ask: Again, but for Cc1cc(Nc2nc(Nc3ccc(C)c(S(N)(=O)=O)c3)ncc2F)ccc1OCC(N)=O
Result: yes

Ask: Again, but for Cc1cc(Nc2nc(Nc3cccc(S(N)(=O)=O)c3)ncc2F)cc(C)c1OCC(N)=O
Result: no

Ask: Again, but for COc1cc(Nc2ncc(F)c(Nc3ccc(OCC#N)cc3)n2)ccc1S(N)(=O)=O
Result: no

Ask: Again, but for CNS(=O)(=O)c1cc(Nc2ncc(F)c(NCCc3ccc(-c4ccncc4)cc3)n2)ccc1C
Result: yes

Ask: Again, but for Cc1noc(COc2cccc(Nc3nc(Nc4ccc(S(N)(=O)=O)cc4)ncc3F)c2)n1
Result: no

Ask: Again, but for CCN(CC)CCNS(=O)(=O)c1ccc(Nc2ncc(F)c(Nc3ccc(OCc4ccccn4)cc3)n2)cc1
Result: no

Ask: Again, but for Cc1cc(COc2ccc(Nc3nc(Nc4ccc(C)c(S(N)(=O)=O)c4)ncc3F)cc2)no1
Result: yes

Ask: Again, but for Cc1ccc(Nc2nc(Nc3ccc(S(N)(=O)=O)cc3)ncc2F)cc1OCC(=O)N1CCOCC1
Result: no

Ask: Again, but for Cc1ccc(Nc2ncc(F)c(Nc3ccc(OCC(N)=O)cc3)n2)cc1S(N)(=O)=O
Result: no

* * *

Exercise: for every item that follows, state its recorded pIC50.
# Tested on: up-regulation of ICAM-1 (CD54) by IFNγ in A549 lung epithelial cells
# assayRemarks: A549 Epithelial Line Stimulated with IFNγ (ICAM-1 surface expression, FACS)
# Type: cell-based, human
# runParameters: A549 epithelial line stimulated with IFNγ; ICAM-1 expression by FACS; read-out: IC50, Example 43
# Procedure: The activity of the compounds of the invention may additionally be characterized by assaying the effect of the 2,4-substituted pyrimidinediamine compounds described herein on A549 lung epithelial cells and U937 cells. […] Therefore, using ICAM-1 expression as readout, test compound effects on different signaling pathways can be assessed in the same cell type. […] The up-regulation of ICAM-1 can be quantified by flow cytometry across a compound dose curve and EC50, values are calculated. […]
One number for each entry, as −log10 of the molar value.

Some compounds with recorded pIC50:
{"columns": ["smilesInput", "pIC50"],
 "data": [
  ["CN1CCN(S(=O)(=O)c2ccc(Nc3ncc(F)c(Nc4cccc(OCC#N)c4)n3)cc2)CC1", 4.68],
  ["CNS(=O)(=O)c1cc(Nc2ncc(F)c(Nc3ccc(OCc4nc(C)no4)cc3)n2)ccc1C", 5.07],
  ["N#CCCc1ccc(Nc2nc(Nc3ccc(F)c(S(N)(=O)=O)c3)ncc2F)cc1", 5.14]
]}

Required: pIC50, one value per compound below.
1. Cc1noc(COc2ccc(Nc3nc(Nc4cccc(S(=O)(=O)NCc5oc(=O)oc5C)c4)ncc3F)cc2)n1
2. Cc1ccc(Nc2ncc(F)c(Nc3ccc(OCC#N)c(Cl)c3)n2)cc1S(N)(=O)=O
3. CC(C)(C#N)Oc1ccc(Nc2nc(Nc3ccc(F)c(S(N)(=O)=O)c3)ncc2F)cc1
4. CCN(CC)CCNS(=O)(=O)c1ccc(Nc2ncc(F)c(Nc3ccc(OCc4cc(C)on4)c(C)c3)n2)cc1

Result:
1: 5.51; 2: 4.44; 3: 4.97; 4: 4.78

Ask: Fill blank: measured pIC50 of the compound Cc1nc(COc2ccc(Nc3nc(Nc4cccc(S(N)(=O)=O)c4)ncc3F)cc2)no1 is ____.
Result: 5.09
